assay-info: amyloid nucleation score (Sup35N fusion, yeast selection) (log enrichment); library NNK1; higher = more nucleation; inactive = no reads after selection;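 further: zero at mode of non-aggregating sequences after 7 days selection at 30°C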
test-readout: amyloid nucleation score

Reference set, count: 6
AIMCKYLRKLVLMFFSR :: 0.811
HEYNCRG :: inactive
KVFLRMQRSSGTVKCKSQTE :: -0.065
GGELMAFTA :: 0.553
VYLYMPPIDLL :: -0.021
HLICRFVHVNHCLVQQPKGS :: 1.37

stdin: Write down amyloid nucleation score measured for item `LRIRYT`
stdout: 2.42

stdin: Specify measured amyloid nucleation score for `CVMNLYGGMPHAGRWTGF` .
stdout: 4.33
